B1: Homeobox protein cut-like 2, residues 895 to 963; numbered along this chain, O14529 (parent)
chain: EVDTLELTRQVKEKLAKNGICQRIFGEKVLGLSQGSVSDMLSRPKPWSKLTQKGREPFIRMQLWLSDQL

Variants of: B1
assayMethodText: abundance fitness (aPCA) (normalised: wild type 0, dead -1); higher = more abundant; growth selection in yeast, the domain comes from the species named
measurementSetup: Homo sapiens
propertyName: abundance fitness
One number for each entry.

Check out these entries, answers already filled in.
[in] Any idea what abundance fitness was measured for `K14D` ?
[out] -0.55

[in] Which abundance fitness value belongs to `R43E` ?
[out] -0.124

[in] For `P46M` , what is its reported abundance fitness?
[out] -0.214

[in] Look up abundance fitness for this variant: `I59G`
[out] -0.315

[in] State the recorded abundance fitness for this entry: `K12Y`
[out] -0.528

For each of the items listed, what is its abundance fitness?
1. Q62N
2. N18W
3. P57A
4. K28P
5. G54A
6. D39G

[out]
-0.401
-0.102
-0.016
-0.6
0.084
0.026

Below are 2 variants. Give each one its abundance fitness.
1. I20C
2. S38Y

[out]
-0.269
-0.008

Give abundance fitness for all variants that follow.
1. R60S
2. G19S

[out]
[-0.396, -0.01]

// for each variant below, give its abundance fitness
1. L65F
2. A16K
3. D39P
4. L69N
5. S38E
6. V37W
7. S66G

[out]
1: -0.193; 2: 0.001; 3: -0.184; 4: -0.058; 5: 0.106; 6: -0.061; 7: 0.048

Batch of 2 variants: report abundance fitness for each.
1. L15V
2. I59R

[out]
1: -0.154; 2: 0.113

Give me abundance fitness for each of these variants, listed below.
1. W47Q
2. Q34L
3. E27S
4. R43P
5. Q52L
6. L41G
7. K14E

[out]
1. -0.84
2. -0.003
3. -0.006
4. -0.357
5. -0.025
6. -0.107
7. -0.073

Provide abundance fitness values for the following items, in order.
1. M61R
2. G31M

[out]
1. -0.935
2. -0.347

For every item below, please supply its abundance fitness.
1. F25M
2. Q10P
3. S48P
4. D3I

[out]
[-0.462, -0.158, -0.229, -0.541]
